# Test system: VDR homodimer (NR concentration 270 nM)
# protocol: PBM binding z-score (relative to random genomic background probes); higher = stronger binding; sequences stand for … in GC…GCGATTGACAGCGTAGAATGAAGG
Answer each item with its documented PBM binding z-score.

Item: `AGAGTGAGGTTAAGATCAGGGAAACAGAATACAT` | PBM binding z-score: 1.06

Item: `ATACGAAGGTGATCGTGAGGTCGTTGATACTAAC` | PBM binding z-score: 2.48

Item: `TCGAGTAGATTAGTCGGGGCATTCAGCCAACATA` | PBM binding z-score: -0.548

Item: `CATACAGGGTCAGCTAGGCTAGAGTAGGGACGGC` | PBM binding z-score: 1.04

Item: `ATCTCTAGGTAACAAGTCCAGTGAAAGAGAGGAC` | PBM binding z-score: 0.635

Item: `CCTGCTGGGCCAAGGTCATTGATCAGTCAAAGCA` | PBM binding z-score: 2.48

Item: `ATCGAAAGGTCGAGGTGAGTACAGAGAAAGGGAA` | PBM binding z-score: 1.13

Item: `TCGGCTAGGTCAACGATGGTCAGCTAATCTGCTA` | PBM binding z-score: 0.189

Item: `TCATATATGTAAATGCTAGGTGAAAGTCCGATCT` | PBM binding z-score: -0.0734

Item: `ATATGTAGGTTATCGGGACATTCAGTTTGCGCAT` | PBM binding z-score: 1.48

Item: `GTAACGAGGGCAAGTTGATAGCAGAGTTTGATGG` | PBM binding z-score: 2.23

Item: `CGTCAAAGTTCAACCAAGGTAACGTAAAGCACGC` | PBM binding z-score: 4.3

Item: `TCTTGTGGATCAATAGAGGTTAAGAAAGTGCGCT` | PBM binding z-score: 0.314

Item: `AGAACGAGGGCACCCTGAGTTGATAGCAGAGTAG` | PBM binding z-score: 1.36

Item: `CGTCCAAGGTCAAAGATCAGTGAAGAGATGACGG` | PBM binding z-score: 2.6

Item: `CCTAGTTGGTCATGGTCACACACGCTATAGGTAC` | PBM binding z-score: 0.905

Item: `CGTGCTAGGTCAATGGTCAGCTAAAGCAGCTCGC` | PBM binding z-score: 0.301

Item: `ACTATTAGTTGAGACGAGGGCTACCGATAGGTTG` | PBM binding z-score: -0.209

Item: `ACTATTAGTTGACTTAGCGCAACCGATACGACGC` | PBM binding z-score: 0.12

Item: `TAGCCTAGGTCTTTCAGGGGCCAGTATAGAAAGC` | PBM binding z-score: -0.407

Item: `CGTCCAAGGTCAAAGGTCAGTGACGAGATGACGG` | PBM binding z-score: 3.54

Item: `GCATATAGGTAATAGAAGGTGAAAGTCCGATTGT` | PBM binding z-score: 0.274

Item: `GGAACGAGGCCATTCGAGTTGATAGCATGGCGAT` | PBM binding z-score: 1.7

Item: `GCGACTGGGGCCTCAGCAGGTTACCATAACTTAA` | PBM binding z-score: -0.622

Item: `GGAACGAGGGCAAGTTGATAGTAGAGTTTGATGG` | PBM binding z-score: 2.31

Item: `GCTGCTAGGTCAACTGATGGTCAGCGAAAGCTCG` | PBM binding z-score: 0.0996

Item: `ATCGAAAGGTCGCGAGGTGAGTATACAGAAAGGC` | PBM binding z-score: 0.971

Item: `CAAACTAGGTCCAGAGGTCAAAGTCCGCTTCCCG` | PBM binding z-score: 4.18

Item: `CCGACTGGGGAAAAGGTTACCATACTCAGTACGA` | PBM binding z-score: 0.0305

Item: `CCGACTGAGGCAGAAAGGTTACCATACCATCCGG` | PBM binding z-score: -0.0311

Item: `CAAACTAGGTCACAGAGGTCACAGTCCGTGCGTA` | PBM binding z-score: 6.14

Item: `GGAACGAGGGCAAAGTTGATAACATCTGTCGACG` | PBM binding z-score: 1.42

Item: `TCTGGTAGATCAACAGGAGGTTAAGAAAGATCGA` | PBM binding z-score: 0.00452

Item: `ATCTCTAGGAAAAGATAGTTCAGTGAATGCAAAT` | PBM binding z-score: 0.566

Item: `TCTTGTAGATCAACGGTTAAGAAAGCCGAAGCCT` | PBM binding z-score: -0.227

Item: `CCTGCTAGGTCATGGTCAGCTATTCTACAGTATG` | PBM binding z-score: 0.248

----------
# Test system: LXRa:RXRa (NR concentration 270 nM, RXRa partner concentration 90 nM)
# protocol: PBM binding z-score (relative to random genomic background probes); higher = stronger binding; sequences stand for … in GC…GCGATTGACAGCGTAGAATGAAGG
recorded_metric: PBM binding z-score
In your answer, state the number alone without any accompanying words.

Item: `CAGACTGGGGCAAGGTTACCATAACGCACAGCCA` | PBM binding z-score: 1.05

Item: `GCTAGCAGGCCATTTGGTTCACTCAATGACGGGC` | PBM binding z-score: -0.57

Item: `ACTAGCAGGCCAAGTTTGGGTCACTCAGACAAAG` | PBM binding z-score: 0.195

Item: `TCAGACAGGTGAAGGTAACTCCGGTACGCAGTCG` | PBM binding z-score: 2.08

Item: `CGAACTAGGTCATTGACAGGACACTGAATAGTAA` | PBM binding z-score: 3

Item: `ATACCAAGGGGATCGTGAGGTCGTTGATACTAAC` | PBM binding z-score: 0.487

Item: `ACTATTAGTTGAGACGAGGCCAACCGATAGGTTG` | PBM binding z-score: 0.188

Item: `ACTAGTTGGTCAGCTGAGGTCAGACACAATTCGG` | PBM binding z-score: 1.65

Item: `CGTCAAAGTTCAAGGTAACGTAACAGAAAGCAGC` | PBM binding z-score: 5.73

Item: `CCTACTGTGCCAAAGGTCATTGATTCCAATGCTC` | PBM binding z-score: 5.82

----------
# Tested on: LXRa homodimer (NR concentration 270 nM)
# protocol: PBM binding z-score (relative to random genomic background probes); higher = stronger binding; sequences stand for … in GC…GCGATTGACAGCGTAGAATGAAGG
recorded_metric: PBM binding z-score
In your answer, state the number alone without any accompanying words.

Item: `CCGAGTAGGTTATGGGGCGTTCAGGCAACGGTGA` | PBM binding z-score: -0.0765

Item: `ACTATTAGTTGAGACTAGGGCAACCGATAGGTTG` | PBM binding z-score: -0.416

Item: `CCTATTAGTTGACCATTAGGGCAACCGAAGCTCG` | PBM binding z-score: 0.475

Item: `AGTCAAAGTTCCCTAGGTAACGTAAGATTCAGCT` | PBM binding z-score: -0.0977

Item: `TCGAGTAGGTTAATCGGGGCATTCAGCCAACATA` | PBM binding z-score: -0.187

Item: `ACTATAAGTTGAGACGAGGGCAACCGATAGGTTG` | PBM binding z-score: -0.161

Item: `ACTTATGGGTCAACGAGGTTATAGCACGCGTATA` | PBM binding z-score: 0.915

Item: `GATACAGGGTCAAGGCCAGATTACGCGTATTGAT` | PBM binding z-score: 0.129

Item: `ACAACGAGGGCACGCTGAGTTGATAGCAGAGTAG` | PBM binding z-score: -0.519

Item: `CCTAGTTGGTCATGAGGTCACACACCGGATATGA` | PBM binding z-score: 2.56

Item: `CCTAGTGGGCCAAAAAGGTCATTGATGCCGATAA` | PBM binding z-score: 3.05

Item: `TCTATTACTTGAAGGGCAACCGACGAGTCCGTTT` | PBM binding z-score: 0.425

Item: `GTACCAAGGTGAATAGGTCCTTGATGAGTAGGCG` | PBM binding z-score: -0.541

Item: `CCGAGTAGGTTATTGGGCATTCAGGCAACGGTGA` | PBM binding z-score: 0.00288

Item: `GCAGACAGGTGAAACGTAGGTAACTCAGGGTGGC` | PBM binding z-score: -0.589

Item: `GCGTACGGGTCAAAGGTTATAGCATGAATAGAAT` | PBM binding z-score: 0.516

Item: `GCTTGTAGATCAGGGTTAAGAAAGACTAAGCTAA` | PBM binding z-score: -0.568

Item: `CCTATTGGGCCAAAAAGGTCATTGATGCCGATAA` | PBM binding z-score: 2.45

Item: `TCTTGTAGATCAAGCACGTTAAGAAAGCCTGAGT` | PBM binding z-score: -0.171

Item: `GCATATAGGCAATACAAGGTGAAAGTCCGATTGT` | PBM binding z-score: -0.175

Item: `CCGGCTAGGTCATGGTCAGCTAATCTACAGTATG` | PBM binding z-score: 0.191

Item: `GCTTGTAGATCAAGGTTAAGTAAGACTAAGCTAA` | PBM binding z-score: -0.213

Item: `CCTCGGAGGACAAAAGGTCAGAGCTGTCCGCTTT` | PBM binding z-score: 2

Item: `CGAACTAGGTCAGAACAGGACAATGAAGGATGAT` | PBM binding z-score: 0.0697

Item: `ATATGTAGGTTATCGGGTCATTCCGTTTGCGCAT` | PBM binding z-score: 1.85

Item: `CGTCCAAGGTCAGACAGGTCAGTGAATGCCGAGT` | PBM binding z-score: 1.39
